molecular target: glucagon receptor (human, UniProt P47871 26-477); experiment: cell-based or functional assay
Sequence (P47871 26-477): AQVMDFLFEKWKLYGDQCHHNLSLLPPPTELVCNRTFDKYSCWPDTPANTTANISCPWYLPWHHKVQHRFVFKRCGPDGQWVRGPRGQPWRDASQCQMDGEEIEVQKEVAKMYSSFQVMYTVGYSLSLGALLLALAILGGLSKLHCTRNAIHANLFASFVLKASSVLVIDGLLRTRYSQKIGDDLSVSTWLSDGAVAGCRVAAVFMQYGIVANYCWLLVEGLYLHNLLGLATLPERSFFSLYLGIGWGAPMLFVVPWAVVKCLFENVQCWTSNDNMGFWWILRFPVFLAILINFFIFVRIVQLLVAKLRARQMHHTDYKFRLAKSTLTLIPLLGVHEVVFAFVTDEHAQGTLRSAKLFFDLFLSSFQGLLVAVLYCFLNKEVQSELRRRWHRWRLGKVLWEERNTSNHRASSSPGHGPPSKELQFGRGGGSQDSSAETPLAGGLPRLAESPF
*1 amine or outer side, *2 acyl side, *3 side chain or, on linkers, in order; H or OH if unused. Where no end group is shown, it is not given here. Side-chain parts run from the residue outwards. The star is where a group is joined. C18 diacid = O=C(O)CCCCCCCCCCCCCCCCC(=O)*; C16 diacid = O=C(O)CCCCCCCCCCCCCCC(=O)*; γGlu = O=C(O)[C@H](CCC(=O)[*:2])N[*:1]; AEEA = NCCOCCOCC(=O)O
Measured Assay (I) Glucagon [EC50] values are reported for all entries that follow.

Examples with their reported Assay (I) Glucagon [EC50] follow.
HSQGTFTSDYSKYLDTRRAQDFVK([γGlu-AEEA-AEEA-γGlu-C18 diacid])WLLNI ... 0.413 nM
HSHGTFTSDYSKYLDSRRAQDFVK([γGlu-γGlu-AEEA-AEEA-γGlu-C18 diacid])WLLNT ... 0.105 nM

So what does the record say about Assay (I) Glucagon [EC50] for HSQGTFTSDYSKYLDVRRAQDFVK([γGlu-γGlu-AEEA-AEEA-γGlu-C16 diacid])WLLST ?
0.009 nM

Ok, now HSQGTFTSDVSRYLESRRAQEFVK([γGlu-γGlu-AEEA-AEEA-γGlu-C18 diacid])WLEST
1.63 nM

Note, next up: HSQGTFTSDYSRYLDLRRAQDFVK([γGlu-γGlu-γGlu-γGlu-C16 diacid])WLLST
0.109 nM
